Measured α-helix % of HSA at 222 nm by item
Target: human serum albumin (HSA) (Homo sapiens)
Construct: three analogous domains (I, II, and III) having amino acid residues of 1–195, 196–383, and 384–585
Sequence (P02768 25-609): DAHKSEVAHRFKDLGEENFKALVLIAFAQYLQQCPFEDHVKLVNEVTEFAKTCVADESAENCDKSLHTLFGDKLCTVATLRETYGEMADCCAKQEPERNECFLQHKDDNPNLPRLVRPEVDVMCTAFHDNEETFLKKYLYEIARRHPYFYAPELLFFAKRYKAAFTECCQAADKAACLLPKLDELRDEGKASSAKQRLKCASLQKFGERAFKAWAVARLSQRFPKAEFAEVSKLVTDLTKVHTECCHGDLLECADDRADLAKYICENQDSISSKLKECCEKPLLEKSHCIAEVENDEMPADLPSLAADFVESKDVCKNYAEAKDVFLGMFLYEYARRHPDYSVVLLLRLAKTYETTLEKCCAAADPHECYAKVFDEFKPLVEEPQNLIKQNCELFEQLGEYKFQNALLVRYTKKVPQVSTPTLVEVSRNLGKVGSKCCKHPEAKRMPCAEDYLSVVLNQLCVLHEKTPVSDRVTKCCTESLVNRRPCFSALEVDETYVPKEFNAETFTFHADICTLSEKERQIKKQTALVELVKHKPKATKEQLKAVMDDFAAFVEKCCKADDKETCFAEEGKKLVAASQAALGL
Assay: Circular dichroism of HSA (secondary structure)
Type: binding
Details: CD, 310 K, 1.32 × 10^−5 M compound; HSA alone 80.1%
Method: The CD spectra were recorded in the 200–250 nm range at 310 K for free serum albumin (1.00 × 10^−6 M) and for HSA with the higher concentration of each mesoionic used in the steady-state fluorescence studies (1.32 × 10^−5 M). Each spectrum was taken on the average of three scans. […]
All answers are understood in %, so give the number only.

Here are 3 compounds together with their reported answers.
# smiles_data, assay_value
data = [
    ("Brc1ccc(Nc2n[n+](-c3ccccc3)c(/C=C/c3ccccc3)s2)cc1.[Cl-]", 77.7),
    ("Cc1ccc(Nc2n[n+](-c3ccccc3)c(/C=C/c3ccccc3)s2)cc1.[Cl-]", 78.5),
    ("Clc1ccc(Nc2n[n+](-c3ccccc3)c(/C=C/c3ccccc3)s2)cc1.[Cl-]", 78.8),
]

Continue with the next compound.
Kindly note the recorded α-helix % of HSA at 222 nm for `COc1ccc(Nc2n[n+](-c3ccccc3)c(/C=C/c3ccccc3)s2)cc1.[Cl-]` , which is 77.3

Ref: paper PMC7321218
